From: the supplement of paper PMC10307832

Test system: NCI-H2085
ASSAY OVERVIEW: relative viability (nuclei count vs DMSO), 5 days (fraction); higher = more cells survive
ASSAY CONTEXT: first compound 0.3162 µM
I'd appreciate it if you marked entries yes when relative viability is lower than 0.7 and no when it is not.

1) CCN(CC)CCCCNc1ncc2cc(-c3cc(OC)cc(OC)c3)c(NC(=O)NC(C)(C)C)nc2n1 + Cc1cc(Nc2cc(N3CCN(C)CC3)nc(Sc3ccc(NC(=O)C4CC4)cc3)n2)n[nH]1 [Tozasertib] (partner 0.1 µM)	no
2) O=c1cc(N2CCOCC2)oc2c(-c3cccc4c3sc3ccccc34)cccc12 + CC(=O)Nc1cccc(-n2c(=O)n(C3CC3)c(=O)c3c(Nc4ccc(I)cc4F)n(C)c(=O)c(C)c32)c1 [Trametinib] (partner 0.02 µM)	yes
3) CCN(CC)CCCCNc1ncc2cc(-c3cc(OC)cc(OC)c3)c(NC(=O)NC(C)(C)C)nc2n1 + CC(=O)Nc1cccc(-n2c(=O)n(C3CC3)c(=O)c3c(Nc4ccc(I)cc4F)n(C)c(=O)c(C)c32)c1 [Trametinib] (partner 0.02 µM)	yes
4) CCN(CC)CCCCNc1ncc2cc(-c3cc(OC)cc(OC)c3)c(NC(=O)NC(C)(C)C)nc2n1 + O=C(CCCCCCC(=O)Nc1ccccc1)NO [Vorinostat] (partner 1 µM)	no
5) CCN(CC)CCCCNc1ncc2cc(-c3cc(OC)cc(OC)c3)c(NC(=O)NC(C)(C)C)nc2n1 + Cc1nc(NC(=O)N2CCC[C@H]2C(N)=O)sc1-c1ccnc(C(C)(C)C(F)(F)F)c1 [Alpelisib] (partner 2 µM)	no
6) O=c1cc(N2CCOCC2)oc2c(-c3cccc4c3sc3ccccc34)cccc12 + CS(=O)(=O)N1CCN(Cc2cc3nc(-c4cccc5[nH]ncc45)nc(N4CCOCC4)c3s2)CC1 [Pictilisib] (partner 1 µM)	yes
